assay: Kinetic solubility of the compound in pH 7.4 buffer measured after 24 hrs by LC-UV analysis; format: physicochemical; settings: read-out: Kinetic_solubility
Assay endpoint: solubility kinetic at 24 h (µM)

- Compound: "CCOc1cccc2c1OCC(=O)N[C@H]1CC[C@H](CC1)CC(=O)N[C@@H](c1ccccc1)C(=O)N[C@H](Cc1ccccc1)C(=O)N[C@H](C(=O)NC)Cc1ccc(cc1)OC2"
  Assay endpoint: "solubility kinetic at 24 h"
  Result modifier: "<"
  Obs value: 2
- Compound: "CCOc1cccc2c1OCC(=O)N[C@H]1CC[C@H](CC1)CC(=O)N[C@@H](c1ccccc1)C(=O)N[C@H](Cc1ccccc1)C(=O)NCCc1ccc(cc1)OC2"
  Assay endpoint: "solubility kinetic at 24 h"
  Result modifier: "<"
  Obs value: 2
- Compound: "CCOc1cccc2c1OCC(=O)N[C@H]1CC[C@H](CC1)CC(=O)N[C@@H](c1ccnc(OC)c1)C(=O)N[C@H](Cc1ccccc1)C(=O)NCCc1ccc(cc1)OC2"
  Assay endpoint: "solubility kinetic at 24 h"
  Result modifier: "="
  Obs value: 3
- Compound: "CCOc1cc(Oc2cc(C)c(Cl)c(C)c2)cc2c1OCC(=O)N[C@H]1CC[C@H](CC1)CC(=O)N[C@@H](CC(C)C)C(=O)N[C@H](Cc1cccnc1)C(=O)N[C@@H](C(=O)O)Cc1ccc(cc1)OC2"
  Assay endpoint: "solubility kinetic at 24 h"
  Result modifier: "="
  Obs value: 11
- Compound: "CCOc1cc(Oc2cc(C)c(Cl)c(C)c2)cc2c1OCC(=O)N[C@H]1CC[C@H](CC1)CC(=O)N[C@@H](CCS(C)(=O)=O)C(=O)N[C@H](Cc1ccncc1)C(=O)NCCc1ccc(cc1)OC2"
  Assay endpoint: "solubility kinetic at 24 h"
  Result modifier: "<"
  Obs value: 2
- Compound: "CCOc1cccc2c1OCC(=O)N[C@H]1CC[C@H](CC1)CC(=O)N[C@@H](c1ccccc1)C(=O)N[C@H](Cc1ccccc1)C(=O)N[C@H](C(=O)NC)Cc1ccc(cc1)NC2"
  Assay endpoint: "solubility kinetic at 24 h"
  Result modifier: "<"
  Obs value: 2
- Compound: "CCOc1cc(Oc2cc(C)cc(C)c2)cc2c1OCC(=O)N[C@H]1CC[C@H](CC1)CC(=O)N[C@@H](c1ccccc1)C(=O)N[C@H](Cc1ccccc1)C(=O)N[C@H](C(=O)O)Cc1ccc(cc1)NC2"
  Assay endpoint: "solubility kinetic at 24 h"
  Result modifier: ">"
  Obs value: 80
- Compound: "CCOc1cccc2c1OCC(=O)N[C@H]1CC[C@H](CC1)CC(=O)N[C@@H](c1cccnc1)C(=O)N[C@H](Cc1ccccc1)C(=O)NCCc1ccc(cc1)OC2"
  Assay endpoint: "solubility kinetic at 24 h"
  Result modifier: "="
  Obs value: 6
- Compound: "CCOc1cccc2c1OCC(=O)N[C@H]1CC[C@H](CC1)CC(=O)N[C@@H](Cc1c[nH]c3ccccc13)C(=O)N[C@H](Cc1ccccc1)C(=O)NCCc1ccc(cc1)OC2"
  Assay endpoint: "solubility kinetic at 24 h"
  Result modifier: "="
  Obs value: 1

These measurements were taken from ChEMBL document CHEMBL5528043.
